# Tested on: HUVEC
# METHOD NOTES: Inhibition of HUVEC growth by CR-4 induced VEGF depleted media of breast cancer cell lines ([3H]-Thymidine incorporation)
# Format: cell-based, human
# EXPERIMENTAL CONDITIONS: Homo sapiens; medium of HTB-133 (KDR+) and HTB-131 (KDR-) cells treated 5 hrs with compound, transferred to HUVEC; [3H]-Thymidine incorporation; FIG. 5
QUANTITY MEASURED: IC50

Reported IC50 for `N#C/C(=C\C=C\c1ccc(O)c(O)c1)C(=O)NCc1ccccc1` : what is it?
20 to 30 nM
